B1: POU domain, class 6, transcription factor 2, residues 609 to 663; numbered along this chain, P78424 (parent)
chain: KRRTSFTPQALEILNAHFEKNTHPSGQEMTEIAEKLNYDREVVRVWFCNKRQALK

variants of: B1; assay: abundance fitness (aPCA) (normalised: wild type 0, dead -1); higher = more abundant; growth selection in yeast, the domain comes from the species named; details: Homo sapiens
We use -0.3 as the dividing line for abundance fitness: on or above the line is TRUE, below is FALSE.

Assess whether reported abundance fitness for KRRTSFTPQALEILNAHFEKNTHPSGQEMTEIAEKLNYDREVVRVWFCNKHQALK sits at -0.3 or higher. FALSE

Quick check, abundance fitness >= -0.3? KRRTSFTPQALEIENAHFEKNTHPSGQEMTEIAEKLNYDREVVRVWFCNKRQALK FALSE

Entry KRRTSFTPQALEILNAHFEKNTHPTGQEMTEIAEKLNYDREVVRVWFCNKRQALK : is its abundance fitness no less than -0.3? TRUE

abundance fitness >= -0.3 for KRRTSFTPQALEILNAHFEKNTHPSGQEMTEIANKLNYDREVVRVWFCNKRQALK ? FALSE

Check this variant for abundance fitness at or above -0.3: KRRTSFTPQALEILNAHFEKVTHPSGQEMTEIAEKLNYDREVVRVWFCNKRQALK FALSE

Could you tell me if the measured abundance fitness of KQRTSFTPQALEILNAHFEKNTHPSGQEMTEIAEKLNYDREVVRVWFCNKRQALK reaches -0.3 or more? TRUE

Could you please find out whether KRRTSFTPQALEILNAHFEKNTHPSGQEMTEIAEKLNYDREVTRVWFCNKRQALK has abundance fitness that meets -0.3 or exceeds it? FALSE

Quick check, abundance fitness >= -0.3? KRRTSFTPQALEILNAHFEKNTMPSGQEMTEIAEKLNYDREVVRVWFCNKRQALK TRUE

Check this variant for abundance fitness at or above -0.3: KRRTSFTRQALEILNAHFEKNTHPSGQEMTEIAEKLNYDREVVRVWFCNKRQALK TRUE

Threshold query (abundance fitness >= -0.3) on KRRTSFTPQALEILNAHFEKNTHPSGQEMTEDAEKLNYDREVVRVWFCNKRQALK FALSE

hey, is abundance fitness for this one >= -0.3? KRRTSFTPQALEILNAHFEKNTHPSGQEMTEIAEDLNYDREVVRVWFCNKRQALK TRUE
